The measurements presented in this section are drawn from ChEMBL document CHEMBL1795238.

system: Brain; settings: rat, in vivo, iv, 4 h
assay metric: log10 Vdu (log10 of the value in mL)

{"molecule": "CCC(C(N)=O)(C(N)=O)c1ccccc1 [PHENYLETHYLMALONAMIDE]", "log10 Vdu": -0.05}
{"molecule": "CCn1cc(C(=O)O)c(=O)c2cc(F)c(N3CCNCC3)cc21", "log10 Vdu": 0.46}
{"molecule": "CC(C)(C)NC(=O)[C@@H]1C[C@@H]2CCCC[C@@H]2CN1C[C@@H](O)[C@H](Cc1ccccc1)NC(=O)[C@H](CC(N)=O)NC(=O)c1ccc2ccccc2n1", "log10 Vdu": 2.32}
{"molecule": "COc1ccc2c3c1O[C@H]1[C@@H](O)C=C[C@H]4[C@@H](C2)N(C)CC[C@@]341", "log10 Vdu": 0.51}
{"molecule": "CO[C@@]1(NC(=O)C(C(=O)O)c2ccc(O)cc2)C(=O)N2C(C(=O)O)=C(CSc3nnnn3C)CO[C@@H]21 (some centres not stated)", "log10 Vdu": -0.24}
{"molecule": "Cc1c(O)cccc1C(=O)N[C@@H](CSc1ccccc1)[C@H](O)CN1C[C@H]2CCCC[C@H]2C[C@H]1C(=O)NC(C)(C)C", "log10 Vdu": 2.93}
{"molecule": "CN(Cc1cnc2nc(N)nc(N)c2n1)c1ccc(C(=O)N[C@@H](CCC(=O)O)C(=O)O)cc1 [METHOTREXATE]", "log10 Vdu": -0.17}
{"molecule": "CSc1ccc2c(c1)N(CCC1CCCCN1C)c1ccccc1S2 (configuration not stated)", "log10 Vdu": 3.52}
{"molecule": "Nc1c2c(nc3ccccc13)CCCC2", "log10 Vdu": 1.34}
{"molecule": "CC(C)Nc1cccnc1N1CCN(C(=O)c2cc3cc(NS(C)(=O)=O)ccc3[nH]2)CC1", "log10 Vdu": 1.60}
{"molecule": "COc1ccc2c(c1)c(CC(=O)O)c(C)n2C(=O)c1ccc(Cl)cc1", "log10 Vdu": 1.15}
{"molecule": "Nc1nnc(-c2cccc(Cl)c2Cl)c(N)n1", "log10 Vdu": 0.66}
{"molecule": "O=C(O)c1ccccc1O", "log10 Vdu": 0.00}
{"molecule": "CN1CC[C@]23c4c5ccc(O[C@@H]6O[C@H](C(=O)O)[C@@H](O)[C@H](O)[C@H]6O)c4O[C@H]2[C@@H](O)C=C[C@H]3[C@H]1C5 [MORPHINE 3-GLUCURONIDE]", "log10 Vdu": -0.22}
{"molecule": "CC1(C)O[C@@H]2[C@@H](CO[C@@]3(COS(N)(=O)=O)OC(C)(C)O[C@@H]23)O1 [TOPIRAMATE]", "log10 Vdu": 0.51}
{"molecule": "COc1cccc(C2(O)CCCCC2CN(C)C)c1 (configuration not stated)", "log10 Vdu": 0.62}

----------
tested on: Plasma; conditions: rat, iv, 4 h
This section presents compounds with their documented Cp(f) values.
assay metric: Cp(f) (µM)

{"compound": "CC(C)(C)NCC(O)COc1cccc2c1CC(O)C(O)C2 (stereo unspecified) [NADOLOL]", "assay metric": "Cp(f)", "obs value": 0.78}
{"compound": "CO[C@@]1(NC(=O)C(C(=O)O)c2ccc(O)cc2)C(=O)N2C(C(=O)O)=C(CSc3nnnn3C)CO[C@@H]21 (stereo partly specified) [MOXALACTAM]", "assay metric": "Cp(f)", "obs value": 3.8}
{"compound": "C=CCc1ccccc1OCC(O)CNC(C)C (stereo unspecified) [ALPRENOLOL]", "assay metric": "Cp(f)", "obs value": 0.28}
{"compound": "CC(C)Nc1cccnc1N1CCN(C(=O)c2cc3cc(NS(C)(=O)=O)ccc3[nH]2)CC1 [DELAVIRDINE]", "assay metric": "Cp(f)", "obs value": 0.017}
{"compound": "COc1ccc2c(c1)c(CC(=O)O)c(C)n2C(=O)c1ccc(Cl)cc1 [INDOMETHACIN]", "assay metric": "Cp(f)", "obs value": 0.2}
{"compound": "CN(C)C(=O)C(CCN1CCC(O)(c2ccc(Cl)cc2)CC1)(c1ccccc1)c1ccccc1 [LOPERAMIDE]", "assay metric": "Cp(f)", "obs value": 0.054}
{"compound": "NCC(CC(=O)O)c1ccc(Cl)cc1 (stereo unspecified) [BACLOFEN]", "assay metric": "Cp(f)", "obs value": 4.2}
{"compound": "CCC(C(N)=O)(C(N)=O)c1ccccc1 [PHENYLETHYLMALONAMIDE]", "assay metric": "Cp(f)", "obs value": 4.3}
{"compound": "C=CCOc1ccccc1OCC(O)CNC(C)C (stereo unspecified) [OXPRENOLOL]", "assay metric": "Cp(f)", "obs value": 0.21}
{"compound": "COc1ccc2c3c1O[C@H]1[C@@H](O)C=C[C@H]4[C@@H](C2)N(C)CC[C@@]341 [CODEINE]", "assay metric": "Cp(f)", "obs value": 0.21}
{"compound": "CC(NC(C)(C)C)C(=O)c1cccc(Cl)c1 (stereo unspecified) [BUPROPION]", "assay metric": "Cp(f)", "obs value": 0.079}
{"compound": "CC1(C)O[C@@H]2[C@@H](CO[C@@]3(COS(N)(=O)=O)OC(C)(C)O[C@@H]23)O1 [TOPIRAMATE]", "assay metric": "Cp(f)", "obs value": 3.4}
{"compound": "CN(Cc1cnc2nc(N)nc(N)c2n1)c1ccc(C(=O)N[C@@H](CCC(=O)O)C(=O)O)cc1 [METHOTREXATE]", "assay metric": "Cp(f)", "obs value": 2.9}
{"compound": "CC(=O)O[C@H]1C(=O)[C@@]2(C)[C@H]([C@H](OC(=O)c3ccccc3)[C@]3(O)C[C@H](OC(=O)[C@H](O)[C@@H](NC(=O)c4ccccc4)c4ccccc4)C(C)=C1C3(C)C)[C@]1(OC(C)=O)CO[C@@H]1C[C@@H]2O [PACLITAXEL]", "assay metric": "Cp(f)", "obs value": 0.016}
{"compound": "C[C@H]1COc2c(N3CCN(C)CC3)c(F)cc3c(=O)c(C(=O)O)cn1c23.C[C@H]1COc2c(N3CCN(C)CC3)c(F)cc3c(=O)c(C(=O)O)cn1c23.O [LEVOFLOXACIN]", "assay metric": "Cp(f)", "obs value": 0.59}
{"compound": "Cc1cn([C@H]2C[C@H](N=[N+]=[N-])[C@@H](CO)O2)c(=O)[nH]c1=O [ZIDOVUDINE]", "assay metric": "Cp(f)", "obs value": 1.2}
